- Tested on: H1 or H9 human embryonic stem cells
- protocol.details: Activin A bioassay: differentiation of human embryonic stem cells to definitive endoderm, cell number and SOX17 intensity by high content analysis (96-well, four days);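 further: total fluorescence of the cell multiplied by cell area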
- Type: cell-based
- condition.label: supernatant concentration 10x, assay dilution 1:20

{"molecule": "ACTN87: activin A variant peptide, SEQ ID 88 (protein) GLECDGKVNICCKKQSFGQAKDIGWNDWIIAPSGYHGGSCSGECPSHIAGTSGSSLSFHSTVINHYRMRGHSPFANLKSCCSPTKLRPMSMLYYDDGQNIIKKDIQNMVVEECGCT", "Sox 17 Intensity average": "7.89E+05"}
{"molecule": "ACTN19: activin A variant peptide, SEQ ID 20 (protein) GLECDGKVNLCCKKQDFVSFKDIGWNDWIIAPSGYHANKCGGKCPSHIAGTSGSSLSFHSTVINHYRMRGHSPFANMGSCCIPTKLRPMSMLYYDDGQNIIKKDIQNMIVEECGCS", "Sox 17 Intensity average": "3.96E+04"}
{"molecule": "ACTN52: activin A variant peptide, SEQ ID 53 (protein) GLECDGKVNICCKKQLFGKTKDIGWNDWIIAPSGYHGGSCTGECPSHIAGTSGSSLSFHSTVINHYRMRGHSPNANLKSCCSPTKLRPMSMLYYDDGQNIIKKDIQGMKVEECGCT", "Sox 17 Intensity average": "2.64E+04"}
{"molecule": "ACTN8: activin A variant peptide, SEQ ID 9 (protein) GLECDGKVNYCCKKQDFVSFKDIGWNDWIIAPSGYHANKCSGKCPSHIAGTSGSSLSFHSTVINHYRMRGHSPFSDMGSCCVPTKLRPMSMLYYDDGQNIIKKDIQNMIVEECGCS", "Sox 17 Intensity average": "1.181E+07"}
{"molecule": "ACTN17: activin A variant peptide, SEQ ID 18 (protein) GLECDGKVNYCCKKQDFVSFKDIGWNDWIIAPSGYHANKCGGKCPSHIAGTSGSSLSFHSTVINHYRMRGHSPFSDMGACCVPTKLRPMSMLYYDDGQNIIKKDIQNMIVEECGCS", "Sox 17 Intensity average": "2.83E+05"}
